# Experimental Details: Antioxidant activity assessed as inhibition of singlet oxygen-induced oxidation of DHR to fluorescent rhodamine-123 measured after 30 mins by fluorescence microplate screening assay
# Type: physicochemical
Provide the recorded pIC50 for the entries that follow.
Schema: pIC50 number; meaning minus log10 of the concentration expressed in molar units.

// Input: `O=c1c(O)c(-c2ccc(O)c(O)c2)oc2c(O)c(O)ccc12` . Output its pIC50 only.
5.38

Return pIC50 for the following compound: `COc1ccc(/C=C/c2oc3c(O)c(O)ccc3c(=O)c2O)cc1OC`
6.00

Annotate the compound `COc1ccc2c(=O)c(O)c(-c3ccc(O)c(O)c3)oc2c1OC` with its measured pIC50.
5.89

Report pIC50 for `COc1ccc(-c2oc3c(O)c(O)ccc3c(=O)c2O)cc1OC`
5.62

Name the recorded pIC50 of the compound listed here: `COc1ccc2c(=O)c(O)c(/C=C/c3ccc(O)c(O)c3)oc2c1OC`
5.92

Supply measured pIC50 of `O=c1c(O)c(/C=C/c2ccc(O)c(O)c2)oc2c(O)c(O)ccc12` in your reply.
6.00

###

# Experimental Details: Antioxidant activity assessed as inhibition of HOCl-induced oxidation of non-fluorescent DHR to fluorescent rhodamine-123 by fluorescence-based assay
# Assay type: physicochemical
Property Measured: pIC50
Please report pIC50 as the negative decimal logarithm of the molar concentration, giving only the number.

Report measured pIC50; entry is `COc1ccc(/C=C/c2oc3c(O)c(O)ccc3c(=O)c2O)cc1OC`
6.04

State its pIC50: `COc1ccc2c(=O)c(O)c(-c3ccc(O)c(O)c3)oc2c1OC`
5.48

Dear colleague, please send me the reported pIC50 for `COc1ccc2c(=O)c(O)c(/C=C/c3ccc(O)c(O)c3)oc2c1OC` when you can.
6.09

Let me know recorded pIC50 for `O=c1c(O)c(-c2ccc(O)c(O)c2)oc2c(O)c(O)ccc12` , thanks.
5.62

Check the records and state pIC50 for O=c1c(O)c(-c2ccc(O)c(O)c2)oc2cc(O)cc(O)c12 [QUERCETIN]
6.10

Give the reported pIC50 for this compound. `O=c1c(O)c(/C=C/c2ccc(O)c(O)c2)oc2c(O)c(O)ccc12`
5.85

Return the recorded pIC50 value; entry: `COc1ccc(-c2oc3c(O)c(O)ccc3c(=O)c2O)cc1OC`
5.20

###

# Experimental Details: Antioxidant activity assessed as inhibition of nitric oxide-induced oxidation of DAF-2 to DAF-2T measured after 30 mins by fluorimetric analysis
# Format: physicochemical
Lab note: compare IC50 with 100 nM, writing T if less and F if equal or more.

Answer whether the compound `COc1ccc2c(=O)c(O)c(/C=C/c3ccc(O)c(O)c3)oc2c1OC` has IC50 strictly less than 100 nM
F

Field: below-cutoff. Rule: recorded IC50 strictly less than 100 nM. Subject: `O=c1c(O)c(-c2ccc(O)c(O)c2)oc2c(O)c(O)ccc12`
F

Dear colleague, could you confirm whether IC50 of `COc1ccc2c(=O)c(O)c(-c3ccc(O)c(O)c3)oc2c1OC` falls below 100 nM? Thanks.
T

Answer whether the compound `O=c1c(O)c(/C=C/c2ccc(O)c(O)c2)oc2c(O)c(O)ccc12` has IC50 strictly less than 100 nM
F

IC50 strictly < 100 nM for this compound? `COc1ccc(-c2oc3c(O)c(O)ccc3c(=O)c2O)cc1OC`
T

Consider `COc1ccc(/C=C/c2oc3c(O)c(O)ccc3c(=O)c2O)cc1OC` . Does its IC50 lie strictly below 100 nM?
F
